- systemName: IL-23 (human, p19/p40 heterodimer) (Homo sapiens, UniProt Q9NPF7;P29460 SEQ:20-189,SEQ:23-328)
- Sequence (Q9NPF7 20-189, chain 1 of 2): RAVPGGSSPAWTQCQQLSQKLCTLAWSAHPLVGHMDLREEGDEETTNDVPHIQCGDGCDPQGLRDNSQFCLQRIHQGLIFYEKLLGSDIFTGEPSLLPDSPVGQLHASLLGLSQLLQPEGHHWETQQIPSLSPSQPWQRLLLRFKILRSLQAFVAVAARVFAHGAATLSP
- Sequence (P29460 23-328, chain 2 of 2): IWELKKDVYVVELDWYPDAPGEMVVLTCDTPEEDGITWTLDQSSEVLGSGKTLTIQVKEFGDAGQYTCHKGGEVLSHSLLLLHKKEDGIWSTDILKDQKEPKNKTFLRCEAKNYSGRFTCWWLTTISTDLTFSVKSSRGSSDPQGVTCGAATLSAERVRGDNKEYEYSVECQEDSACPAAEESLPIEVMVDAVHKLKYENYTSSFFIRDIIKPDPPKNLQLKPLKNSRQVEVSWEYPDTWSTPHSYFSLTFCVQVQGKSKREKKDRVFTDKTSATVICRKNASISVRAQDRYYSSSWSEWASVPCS
- methodDescription: filter; PBS, tRNA, ssDNA, BSA
- conditionContext: tags: R&D Systems, carrier free
Can you tell me pKd for the items I'm about to list?
On this scale, pKd is minus log10 of a concentration expressed in M (mol/L).

Q. Looking for the measured pKd of ARC628 (mixed, deoxy A,G; 2'-OMe C,U) RNA: GGGAGAGGAGAGAACGUUCUACAGGCAAGGCAAUUGGGGAGCGUGGGUGGGGGGGUCGAUCGAUCGAUCAUCGAUG , can you help?
A. 7.24

Q. Looking for the measured pKd of ARC620 (mixed, deoxy A,G; 2'-OMe C,U) RNA: GGGAGAGGAGAGAACGUUCUACAGGAAAGGCGCUUGCGGGGGGUGAGGGAGGGGUCGAUCGAUCGAUCAUCGAUG , can you help?
A. 7.35

Q. Looking for the measured pKd of ARC646 (mixed, deoxy A,G; 2'-OMe C,U) RNA: GGGAGAGGAGAGAACGUUCUACACAUGGCUCGAAAGAGGGGCGUGAGGGUGGGGUCGAUCGAUCGAUCAUCGAUG , can you help?
A. 6.68
